The reported measurements were obtained from patent US20230167182A1.

# system: T1, macaca IL6R-his protein (macaca mulatta)
# T1 chain: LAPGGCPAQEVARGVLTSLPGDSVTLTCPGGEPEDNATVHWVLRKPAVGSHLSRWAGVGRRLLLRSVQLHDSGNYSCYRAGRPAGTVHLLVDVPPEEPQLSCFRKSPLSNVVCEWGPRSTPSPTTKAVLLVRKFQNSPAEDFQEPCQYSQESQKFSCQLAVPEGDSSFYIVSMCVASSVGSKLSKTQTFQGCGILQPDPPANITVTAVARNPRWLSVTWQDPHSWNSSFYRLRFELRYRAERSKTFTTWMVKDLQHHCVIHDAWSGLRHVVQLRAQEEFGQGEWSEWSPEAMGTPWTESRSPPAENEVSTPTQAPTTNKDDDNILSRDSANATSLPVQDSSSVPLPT
# protocolDescription: SPR Biacore T200; mAb captured by anti-mouse IgG on CM5, antigen in flow, 1:1 fit
Hi there, I'd appreciate the recorded Kd for every entry that follows.
Numbers only, in pM.

mouse anti-IL6R monoclonal antibody 1A3 (antibody, V domains shown, Mouse hybridoma mAb purified on Protein A) VH: QVQLQQPGAELVKPGASVKLSCKASGYTFTSYWMHWVKQRPAQGLEWIGEINPSNGRTNFNEKFKTKATLTVDKSSNTAYMQLSSLTSEDSAVYSCLRLNTHYVFDYWGQGTTLTVSS VL: EIVLTQSPTTMAASPGEKITITCSASSSISSNYLHWYQQKPGFSPKLLISRTSNLASGVPTRFSGSGSGTSYSLTIGTMEAGDVATYYCQQGSGIPFTFGSGTKLEIK	328

I need Kd for every entry listed below, if you could help.
1. mouse anti-IL6R monoclonal antibody 1H7 (antibody, V domains shown, Mouse hybridoma mAb) VH: QVQLQQPGTELVKPGASVKLSCKASGYTFTNYWMHWVKQRPGQGLDWIGEINPTNGRTNYNENFKSKATLTVDKSSSTAYMQLSSLTSEDSAVYYCARLNTHYVFDSWGQGTTLTLSS VL: EIVLTQSPTTLAASPGEKITFTCSVSSSISSNYLHWYQQKPGFSPKLLISRTSTLASGVPARFSGSGSGTSYSLTIGTMEAEDVATYYCQQGSGIPFTFGSGTKLELK
2. mouse anti-IL6R monoclonal antibody 1H9 (antibody, V domains shown, Mouse hybridoma mAb) VH: QVQLQQPGAELVKPGASVKLSCKASGYTFTSYWMHWVKLRPGQGLEWIGEINPTNGRTNYYEKFKNRATLTADKSSSTAYMQLSSLTFEDSAVYFCAKFHYSRWYFDVWGTGTTVTVSS VL: DIVMTQSQKFMSTSVGDRVSITCKASQNVGTAVVWYQQKPGQSPKLLINPASNRYTGVPDRFTGSGSGTDFTLTISNMQSEDLADYFCQQYSSYPLTFGAGTKLELK

1. 229
2. 1650
